- target.of.assay: EPHB2 (human)
- assay.text: KINOMEscan competition binding
- measurement.context: compound 10.0 µM
Entries and their kinase still bound, per cent of control values follow.
Express it in %; write the number only.

// worked examples, kinase still bound, per cent of control included
{"record.smiles": "CCN(CC)CCCCNc1ncc2cc(-c3cc(OC)cc(OC)c3)c(NC(=O)NC(C)(C)C)nc2n1", "endpoint.unit": "%", "kinase still bound, per cent of control": 100}
{"record.smiles": "CCN1CCN(C(=O)Cc2ccc(Nc3ncc(F)c(Nc4ccc(C(=O)Nc5ccccc5Cl)cc4)n3)cc2)CC1", "endpoint.unit": "%", "kinase still bound, per cent of control": 93}

# input Requested read-out kinase still bound, per cent of control, target or system EPHB2 (human), entry COc1cc(C(=O)N2CCC(N3CCN(C)CC3)CC2)ccc1Nc1ncc2c(n1)N(C)c1ccccc1C(=O)N2C
# output 100

# input State its kinase still bound, per cent of control on EPHB2 (human): COc1cc(N2CCN(C)CC2)ccc1Nc1ncc2c(n1)N(C)c1ccccc1C(=O)N2C
# output 100

# input Tell me reported kinase still bound, per cent of control for CNC(=O)c1cc(Oc2ccc(NC(=O)Nc3ccc(Cl)c(C(F)(F)F)c3)cc2)ccn1 , tested with EPHB2 (human).
# output 17

====

- target.of.assay: MAP3K11 (human)
- assay.text: KINOMEscan competition binding
- measurement.context: compound 10.0 µM
Listing of entries alongside the reported kinase still bound, per cent of control.
Number only, in %; omit the unit.

# input Sample COc1cc2ncn(-c3cc(OCc4ccccc4C(F)(F)F)c(C(N)=O)s3)c2cc1OC — what was its kinase still bound, per cent of control?
# output 81

# input # query: kinase still bound, per cent of control of entry CCN1CCN(C(=O)Cc2ccc(Nc3ncc(F)c(Nc4ccc(C(=O)Nc5ccccc5Cl)cc4)n3)cc2)CC1
# output 4.6

# input I'd like to know its kinase still bound, per cent of control. The compound in question is Cc1n[nH]c2ccc(-c3cncc(OC[C@@H](N)Cc4c[nH]c5ccccc45)c3)cc12
# output 100

====

Here, each record is paired with measured kinase still bound, per cent of control data.
- target.of.assay: ACVR2B (human) (UniProt Q13705)
- Sequence (Q13705 whole entry, looked up): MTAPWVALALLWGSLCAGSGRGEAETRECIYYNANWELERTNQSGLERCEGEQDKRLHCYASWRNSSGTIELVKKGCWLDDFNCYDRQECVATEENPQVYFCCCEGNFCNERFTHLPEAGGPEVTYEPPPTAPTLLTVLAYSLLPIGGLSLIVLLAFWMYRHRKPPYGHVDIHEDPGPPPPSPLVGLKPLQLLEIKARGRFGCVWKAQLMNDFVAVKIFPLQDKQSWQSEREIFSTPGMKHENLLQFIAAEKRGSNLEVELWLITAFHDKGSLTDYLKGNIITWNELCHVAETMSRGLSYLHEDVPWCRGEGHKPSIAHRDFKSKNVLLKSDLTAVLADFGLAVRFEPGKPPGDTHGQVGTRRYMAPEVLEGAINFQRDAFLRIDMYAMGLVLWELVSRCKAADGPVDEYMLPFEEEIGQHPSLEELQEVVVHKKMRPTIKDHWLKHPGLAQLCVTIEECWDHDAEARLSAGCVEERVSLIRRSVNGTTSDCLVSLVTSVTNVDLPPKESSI
- assay.text: KINOMEscan competition binding
- measurement.context: compound 10.0 µM
Give the value in % but do not write % after it.

{"record.smiles": "CNC(=O)c1ccc(Nc2cc(Nc3ccccc3S(=O)(=O)C(C)C)c3cc[nH]c3n2)nc1", "parameter.measured": "kinase still bound, per cent of control", "experimental.result": 100}
{"record.smiles": "NC(=O)Nc1cc(-c2cccc(F)c2)sc1C(=O)N[C@@H]1CCCNC1", "parameter.measured": "kinase still bound, per cent of control", "experimental.result": 3.8}
{"record.smiles": "COc1ccc(N(C(=O)Oc2c(C)cccc2C)c2ccnc(Nc3ccc(N4CCN(C)CC4)cc3)n2)c(OC)c1", "parameter.measured": "kinase still bound, per cent of control", "experimental.result": 1.8}
{"record.smiles": "O=c1cc(N2CCOCC2)oc2c(-c3cccc4c3sc3ccccc34)cccc12", "parameter.measured": "kinase still bound, per cent of control", "experimental.result": 98}
{"record.smiles": "C=CC(=O)Nc1ccc(CN(C(=O)Nc2c(Cl)c(OC)cc(OC)c2Cl)c2cc(Nc3ccc(N4CCN(C)CC4)cc3)ncn2)cc1", "parameter.measured": "kinase still bound, per cent of control", "experimental.result": 100}

Now look at this one.
# input Form field: reported kinase still bound, per cent of control of Cc1n[nH]c2ccc(-c3cncc(OC[C@@H](N)Cc4c[nH]c5ccccc45)c3)cc12
# output 100

====

- target.of.assay: PKN2 (human) (UniProt Q16513)
- Sequence (Q16513 whole entry, looked up): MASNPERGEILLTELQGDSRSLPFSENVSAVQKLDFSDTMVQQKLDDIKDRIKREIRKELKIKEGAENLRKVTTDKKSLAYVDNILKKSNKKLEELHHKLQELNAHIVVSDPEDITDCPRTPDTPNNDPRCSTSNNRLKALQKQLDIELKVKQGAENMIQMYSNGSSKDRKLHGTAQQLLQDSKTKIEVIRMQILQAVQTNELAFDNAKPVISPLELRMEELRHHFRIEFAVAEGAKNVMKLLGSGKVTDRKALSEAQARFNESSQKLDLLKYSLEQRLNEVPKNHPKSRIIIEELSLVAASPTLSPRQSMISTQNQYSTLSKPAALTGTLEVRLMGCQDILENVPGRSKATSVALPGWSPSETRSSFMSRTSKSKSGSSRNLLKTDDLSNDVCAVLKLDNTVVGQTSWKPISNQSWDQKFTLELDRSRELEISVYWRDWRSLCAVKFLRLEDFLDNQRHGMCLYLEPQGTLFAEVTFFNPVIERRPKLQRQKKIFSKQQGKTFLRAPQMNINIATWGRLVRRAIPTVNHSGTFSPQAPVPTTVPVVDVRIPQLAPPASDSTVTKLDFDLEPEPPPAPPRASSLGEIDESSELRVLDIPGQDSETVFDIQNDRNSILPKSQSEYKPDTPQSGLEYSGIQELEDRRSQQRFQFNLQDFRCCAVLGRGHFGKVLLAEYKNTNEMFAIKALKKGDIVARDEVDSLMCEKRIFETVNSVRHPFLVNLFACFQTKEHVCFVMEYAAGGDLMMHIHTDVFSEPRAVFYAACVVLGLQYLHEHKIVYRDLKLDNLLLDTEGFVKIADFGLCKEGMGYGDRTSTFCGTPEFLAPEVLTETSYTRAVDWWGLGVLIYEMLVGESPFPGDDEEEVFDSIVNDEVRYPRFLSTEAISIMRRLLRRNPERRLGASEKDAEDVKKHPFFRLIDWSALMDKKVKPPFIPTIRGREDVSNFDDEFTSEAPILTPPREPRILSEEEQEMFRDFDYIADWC
- assay.text: KINOMEscan competition binding
- measurement.context: compound 10.0 µM
A collection of compounds and their measured kinase still bound, per cent of control
Response body: numeric value in %, unit text excluded.

Example entries begin here.
{"record.smiles": "C=CC(=O)Nc1cc(-n2c(=O)ccc3cnc4ccc(-c5cn[nH]c5)cc4c32)ccc1C", "endpoint.unit": "%", "kinase still bound, per cent of control": 82}
{"record.smiles": "Cc1n[nH]c2ccc(-c3cncc(OC[C@@H](N)Cc4c[nH]c5ccccc45)c3)cc12", "endpoint.unit": "%", "kinase still bound, per cent of control": 2.4}
{"record.smiles": "NC(=O)Nc1cc(-c2cccc(F)c2)sc1C(=O)N[C@@H]1CCCNC1", "endpoint.unit": "%", "kinase still bound, per cent of control": 38}

# input Look up kinase still bound, per cent of control: CN(C)C/C=C/C(=O)Nc1ccc(C(=O)Nc2cccc(Nc3nccc(-c4cccnc4)n3)c2)cc1
# output 79

====

The following compounds are listed with their measured kinase still bound, per cent of control values.
- target.of.assay: STK3 (human) (UniProt Q13188)
- Sequence (Q13188 whole entry, looked up): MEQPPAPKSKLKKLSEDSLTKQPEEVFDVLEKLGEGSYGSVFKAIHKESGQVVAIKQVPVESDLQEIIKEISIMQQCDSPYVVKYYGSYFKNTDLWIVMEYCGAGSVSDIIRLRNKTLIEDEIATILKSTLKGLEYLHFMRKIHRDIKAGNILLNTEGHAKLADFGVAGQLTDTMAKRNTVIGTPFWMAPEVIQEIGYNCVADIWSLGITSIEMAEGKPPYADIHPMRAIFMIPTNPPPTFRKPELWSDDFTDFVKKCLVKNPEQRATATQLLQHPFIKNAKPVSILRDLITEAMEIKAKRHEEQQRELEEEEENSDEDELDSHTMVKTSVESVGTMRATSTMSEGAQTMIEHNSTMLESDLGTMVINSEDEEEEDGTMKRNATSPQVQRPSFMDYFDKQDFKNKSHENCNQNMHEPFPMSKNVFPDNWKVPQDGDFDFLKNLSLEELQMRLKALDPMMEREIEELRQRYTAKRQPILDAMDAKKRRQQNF
- assay.text: KINOMEscan competition binding
- measurement.context: compound 10.0 µM
Quick reminder: number only, in %, skip the unit.

{"record.smiles": "COCC(=O)NC/C=C/c1ccc2ncnc(Nc3ccc(Oc4ccc(C)nc4)c(C)c3)c2c1", "target.of.assay": "STK3 (human) (UniProt Q13188)", "parameter.measured": "kinase still bound, per cent of control", "experimental.result": 82}
{"record.smiles": "O=C(Nc1cccc(Nc2ncc(Br)c(NCCc3cnc[nH]3)n2)c1)N1CCCC1", "target.of.assay": "STK3 (human) (UniProt Q13188)", "parameter.measured": "kinase still bound, per cent of control", "experimental.result": 0.45}
{"record.smiles": "COc1cc(N2CCN(C)CC2)ccc1Nc1ncc2c(n1)N(C)c1ccccc1C(=O)N2C", "target.of.assay": "STK3 (human) (UniProt Q13188)", "parameter.measured": "kinase still bound, per cent of control", "experimental.result": 100}
{"record.smiles": "COc1ccc(N(C(=O)Oc2c(C)cccc2C)c2ccnc(Nc3ccc(N4CCN(C)CC4)cc3)n2)c(OC)c1", "target.of.assay": "STK3 (human) (UniProt Q13188)", "parameter.measured": "kinase still bound, per cent of control", "experimental.result": 23}
{"record.smiles": "COc1cc2ncn(-c3cc(OCc4ccccc4C(F)(F)F)c(C(N)=O)s3)c2cc1OC", "target.of.assay": "STK3 (human) (UniProt Q13188)", "parameter.measured": "kinase still bound, per cent of control", "experimental.result": 1.8}

# input What does the record list as kinase still bound, per cent of control for CNC(=O)c1ccc(Nc2cc(Nc3ccccc3S(=O)(=O)C(C)C)c3cc[nH]c3n2)nc1 ?
# output 0.2

# input Record request: kinase still bound, per cent of control value, item O=C1NC(=O)/C(=C/c2ccc3nccc(-c4ccncc4)c3c2)S1
# output 54

# input Could you tell me which kinase still bound, per cent of control is on file for CS(=O)(=O)N1CCN(Cc2cc3nc(-c4cccc5[nH]ncc45)nc(N4CCOCC4)c3s2)CC1 ?
# output 100

# input Suppose we examine the compound CCN(CC)CCCCNc1ncc2cc(-c3cc(OC)cc(OC)c3)c(NC(=O)NC(C)(C)C)nc2n1 ; what kinase still bound, per cent of control value has been reported?
# output 100

# input I would be grateful if you could share the reported kinase still bound, per cent of control for CCN1CCN(C(=O)Cc2ccc(Nc3ncc(F)c(Nc4ccc(C(=O)Nc5ccccc5Cl)cc4)n3)cc2)CC1 .
# output 100

====

compounds and their reported kinase still bound, per cent of control
- target.of.assay: UniProtKB Q7L7X3
- Sequence (Q7L7X3 whole entry, looked up): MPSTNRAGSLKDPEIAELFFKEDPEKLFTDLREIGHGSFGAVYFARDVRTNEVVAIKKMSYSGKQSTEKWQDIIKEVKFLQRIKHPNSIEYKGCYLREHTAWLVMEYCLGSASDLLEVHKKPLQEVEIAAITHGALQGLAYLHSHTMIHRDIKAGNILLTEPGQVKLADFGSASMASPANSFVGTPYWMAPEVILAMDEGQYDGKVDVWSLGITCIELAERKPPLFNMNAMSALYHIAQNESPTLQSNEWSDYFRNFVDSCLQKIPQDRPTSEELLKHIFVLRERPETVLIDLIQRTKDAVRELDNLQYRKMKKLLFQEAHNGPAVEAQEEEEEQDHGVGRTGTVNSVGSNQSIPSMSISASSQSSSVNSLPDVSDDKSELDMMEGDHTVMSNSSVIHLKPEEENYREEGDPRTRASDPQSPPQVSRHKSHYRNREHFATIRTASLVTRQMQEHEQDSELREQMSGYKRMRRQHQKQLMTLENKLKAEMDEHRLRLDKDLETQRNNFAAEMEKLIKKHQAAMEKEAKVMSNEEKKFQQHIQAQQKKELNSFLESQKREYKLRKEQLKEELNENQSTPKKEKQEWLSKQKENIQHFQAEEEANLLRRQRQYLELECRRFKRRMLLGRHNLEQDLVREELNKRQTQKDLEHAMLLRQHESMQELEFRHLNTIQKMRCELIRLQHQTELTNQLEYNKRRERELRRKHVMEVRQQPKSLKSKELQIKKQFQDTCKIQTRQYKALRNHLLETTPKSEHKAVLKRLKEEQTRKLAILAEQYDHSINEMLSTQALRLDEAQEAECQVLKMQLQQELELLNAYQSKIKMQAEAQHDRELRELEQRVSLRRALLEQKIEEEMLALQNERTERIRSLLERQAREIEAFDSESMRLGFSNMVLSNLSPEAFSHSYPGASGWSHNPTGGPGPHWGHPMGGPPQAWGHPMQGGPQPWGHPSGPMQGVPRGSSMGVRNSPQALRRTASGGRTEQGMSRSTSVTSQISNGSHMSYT
- assay.text: KINOMEscan competition binding
- measurement.context: compound 10.0 µM
Expressed in %, but write only the number.

Some solved cases for reference:
{"record.smiles": "C=CC(=O)Nc1cc(-n2c(=O)ccc3cnc4ccc(-c5cn[nH]c5)cc4c32)ccc1C", "target.of.assay": "UniProtKB Q7L7X3", "experimental.result": 22}
{"record.smiles": "O=C(Nc1cccc(Nc2ncc(Br)c(NCCc3cnc[nH]3)n2)c1)N1CCCC1", "target.of.assay": "UniProtKB Q7L7X3", "experimental.result": 0.25}
{"record.smiles": "COc1cc(C(=O)N2CCC(N3CCN(C)CC3)CC2)ccc1Nc1ncc2c(n1)N(C)c1ccccc1C(=O)N2C", "target.of.assay": "UniProtKB Q7L7X3", "experimental.result": 28}
{"record.smiles": "N#CCNC(=O)c1ccc(-c2ccnc(Nc3ccc(N4CCOCC4)cc3)n2)cc1", "target.of.assay": "UniProtKB Q7L7X3", "experimental.result": 32}
{"record.smiles": "CNC(=O)c1ccc(Nc2cc(Nc3ccccc3S(=O)(=O)C(C)C)c3cc[nH]c3n2)nc1", "target.of.assay": "UniProtKB Q7L7X3", "experimental.result": 0.65}

# input API: value(readout=kinase still bound, per cent of control, system=UniProtKB Q7L7X3) for record C[C@@H](Oc1cc(-c2cnn(C3CCNCC3)c2)cnc1N)c1c(Cl)ccc(F)c1Cl
# output 1.2

# input Quick check: kinase still bound, per cent of control on UniProtKB Q7L7X3, item COCC(=O)NC/C=C/c1ccc2ncnc(Nc3ccc(Oc4ccc(C)nc4)c(C)c3)c2c1 ?
# output 94

# input What reported kinase still bound, per cent of control corresponds to CNC(=O)c1cc(Oc2ccc(NC(=O)Nc3ccc(Cl)c(C(F)(F)F)c3)cc2)ccn1 on UniProtKB Q7L7X3?
# output 23

# input State its kinase still bound, per cent of control on UniProtKB Q7L7X3: O=C1NC(=O)/C(=C/c2ccc3nccc(-c4ccncc4)c3c2)S1
# output 3
